- Test system: MARIMO;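 further: after 48 h exposure read by CellTiter-Glo luminescence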
- test_protocol: cell viability relative to vehicle control; higher = less cytotoxic
- particulars: 10 µM; SRSF2 genotype: SRSF2 P95H/wt
Structures can show the parent of a compound that is named as a salt.
Mark rule met only for cell viability values smaller than 90%; exact matches and larger values are rule not met.

Strictly below 90% in cell viability? CN(C)CC(c1ccc(O)cc1)C1(O)CCCCC1 (centres undefined)
rule not met

Hi there! Is cell viability for `Cc1cccc(Nc2ccccc2C(=O)O)c1C` below 90%, do you know?
rule not met

cell viability strictly < 90% for this compound? Cn1nnc(-c2ccc3c(c2)[nH]c2nc(Cc4ccccc4)nc(NC4CCC(N)CC4)c23)n1 (centres undefined)
rule met

Here's an entry: COc1cc2c(cc1O)C[C@H]1c3cc(O)c(OC)cc3CC[N+]1(C)C2 (some centres undefined) [Phellodendrine chloride] . Is its cell viability below 90%?
rule not met

Is cell viability of `COC(c1ccccc1)(c1ccccc1)[C@H](Oc1nc(C)cc(C)n1)C(=O)O` strictly below 90%?
rule not met

Regarding COc1ncnc(NS(=O)(=O)c2ccc(N)cc2)c1OC [Sulfadoxine (Sulphadoxine)] , kindly confirm whether its cell viability is beneath 90%.
rule not met

Given the entry `S=C(NCc1ccc2c(c1)OCO2)N1CCN(c2ncnc3c2oc2ccccc23)CC1` , would its reported cell viability be below 90%?
rule met

Is cell viability of O=c1[nH]ccc2c(S(=O)(=O)N3CCCNCC3)cccc12 [Hydroxyfasudil (HA-1100)HCl] strictly below 90%?
rule not met

Field: below-cutoff. Rule: recorded cell viability strictly less than 90%. Subject: `Cc1cc(OCCCS(C)(=O)=O)cc(C)c1-c1cccc(COc2ccc3c(c2)OC[C@H]3CC(=O)O)c1`
rule not met

Field: below-cutoff. Rule: recorded cell viability strictly less than 90%. Subject: `CCOC(=O)C1=C(C)NC(C)=C(C(=O)OCC)C1c1ccccc1/C=C/C(=O)OC(C)(C)C`
rule met

# TODO verify cell viability < 90% strictly for this compound: `CC1=NN(c2ccccc2)C(=O)C1`
rule not met

Is it true that cell viability reported for `C=C1CCOC1=O` is less than 90%?
rule not met

Given the entry Cc1cc(C(=O)Nc2nc3cccc(Cl)c3n2[C@@H]2CCCCN(C(=O)/C=C/CN(C)C)C2)ccn1 [Nazartinib (EGF816, NVS-816)] , would its reported cell viability be below 90%?
rule met

A record lists `COc1cc(C=O)c([N+](=O)[O-])cc1OC` . Is its cell viability below 90%?
rule not met

Is 90% strictly greater than the compound's reported cell viability? compound: Fc1ccc(C(c2ccc(F)cc2)N2CCN(C/C=C/c3ccccc3)CC2)cc1 [Flunarizine 2HCl]
rule met

Identify whether the compound Nc1ncnc2c1ncn2C1CC(O)C(CO)O1 (centres undefined) [2'-Deoxyadenosine monohydrate] records cell viability below 90%.
rule not met

Bench note: check whether CC(C)NCC(O)c1ccc(NS(C)(=O)=O)cc1 (centres undefined) [Sotalol HCl] shows cell viability below 90%
rule not met

Please let me know if COC(=O)C1=CO[C@@H](O[C@@H]2O[C@H](CO)[C@@H](O)[C@H](O)[C@H]2O)[C@@H]2[C@@]3(C)O[C@H]3[C@@H](O)[C@]12O [Sesamoside] shows cell viability below 90%.
rule not met

Does this compound meet the criterion cell viability < 90%? `Nc1nc2c(ncn2COCCO)c(=O)[nH]1`
rule not met

Is cell viability of Cc1ccc(OCC(O)C(C)NC(C)C)c2c1CCC2 (centres undefined) strictly below 90%?
rule not met

is_below(cell viability, 90%) for O=C1c2c(O)ccc(O)c2C(=O)c2c(NCCNCCO)ccc(NCCNCCO)c21 [Mitoxantrone 2HCl] ?
rule met

Please determine if CC1CNC(=O)NC1=O (centres undefined) [Dihydrothymine] is below 90% in terms of cell viability.
rule not met

Problem: For the compound `CC[C@@H](N)CNc1ccnc(-c2cc(-c3cnn(C)c3)ccc2O)n1` , is cell viability under 90%?
rule met

Does `CC(C)(C)OC(=O)N[C@H]1CCCCC/C=C\[C@@H]2C[C@@]2(C(=O)NS(=O)(=O)C2CC2)NC(=O)[C@@H]2C[C@@H](OC(=O)N3Cc4cccc(F)c4C3)CN2C1=O` have cell viability strictly under 90%?
rule not met

Please indicate whether the reported cell viability of CCOC(=O)N1CCC(CN(Cc2ccc(Cl)cc2)Cc2ccc([N+](=O)[O-])s2)C1 (centres undefined) [Stenabolic (SR9009)] is strictly below 90%.
rule met

cell viability under 90%? Item: `CN1CCN(c2ccc(Nc3cc(-c4cccc(-n5ccc6cc(C7CC7)cc(F)c6c5=O)c4CO)cn(C)c3=O)nc2)CC1`
rule met

Is 90% strictly greater than the compound's reported cell viability? compound: `CN1CCC(NC(=O)c2cc(-c3c(O)cc(O)cc3Oc3ccc([N+](=O)[O-])cc3)on2)CC1`
rule met

cell viability under 90%? Item: `O=C(CCCN1CCC(O)(c2ccc(Cl)cc2)CC1)c1ccc(F)cc1`
rule met

Would you kindly verify if cell viability of O=C(c1ccccc1)C(O)O [Phenylglyoxal hydrate] is strictly less than 90%?
rule met

Quick check: does O=C(/C=C\n1cnc(-c2cc(C(F)(F)F)cc(C(F)(F)F)c2)n1)NNc1cnccn1 [Selinexor (KPT-330)] have cell viability under 90%?
rule met

Could you please tell me whether cell viability recorded for COC(=O)CC1CC(c2ccc(O)cc2)=NO1 (centres undefined) is less than 90%?
rule not met
